Values from PubChem BioAssay

# TARGET: Short transient receptor potential channel 4 (Mus musculus) (UniProt Q9QUQ5)
# Sequence (Q9QUQ5 whole entry, looked up): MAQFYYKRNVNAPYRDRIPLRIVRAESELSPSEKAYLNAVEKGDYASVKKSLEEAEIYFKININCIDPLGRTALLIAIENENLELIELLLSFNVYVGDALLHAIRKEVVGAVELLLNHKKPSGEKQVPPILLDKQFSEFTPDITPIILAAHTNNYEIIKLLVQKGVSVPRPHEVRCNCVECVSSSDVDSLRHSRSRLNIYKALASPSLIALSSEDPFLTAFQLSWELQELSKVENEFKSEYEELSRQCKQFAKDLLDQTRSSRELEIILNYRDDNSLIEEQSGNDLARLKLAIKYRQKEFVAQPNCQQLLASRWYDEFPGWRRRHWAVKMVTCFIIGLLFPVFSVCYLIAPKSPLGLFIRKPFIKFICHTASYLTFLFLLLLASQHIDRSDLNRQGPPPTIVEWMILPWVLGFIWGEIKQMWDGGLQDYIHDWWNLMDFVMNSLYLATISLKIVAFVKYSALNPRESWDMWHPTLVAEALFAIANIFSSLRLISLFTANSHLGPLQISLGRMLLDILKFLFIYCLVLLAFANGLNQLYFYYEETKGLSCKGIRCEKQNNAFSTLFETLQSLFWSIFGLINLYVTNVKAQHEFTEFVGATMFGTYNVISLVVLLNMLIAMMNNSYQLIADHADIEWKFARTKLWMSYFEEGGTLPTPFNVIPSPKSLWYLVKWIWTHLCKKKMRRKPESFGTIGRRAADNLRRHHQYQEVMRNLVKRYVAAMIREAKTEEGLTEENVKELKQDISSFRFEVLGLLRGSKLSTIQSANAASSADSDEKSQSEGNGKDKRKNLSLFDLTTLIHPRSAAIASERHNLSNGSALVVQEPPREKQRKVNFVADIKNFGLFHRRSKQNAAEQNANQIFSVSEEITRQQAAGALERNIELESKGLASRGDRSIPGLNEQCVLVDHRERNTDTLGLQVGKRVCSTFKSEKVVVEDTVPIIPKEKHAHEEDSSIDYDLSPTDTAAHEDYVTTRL
# METHOD SUMMARY: potentiation of DAMGO-evoked TRPC4 calcium signal – cell-based, HEK293 TRPC4/mu-opioid, Fluo-4 calcium, EC20 DAMGO, dose response (AID 434941);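 also: calcium entry triggered by an EC20 dose of DAMGO at the co-expressed mu-opioid receptor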
# EXPERIMENTAL SETUP: HEK293 TRPC4/mu-opioid cells, Fluo-4 calcium fluorescence; series mostly up to 20 µM
Potency and affinity values are given separately. Activity calls are given as the source filed them.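 The calls were made as follows: active = earlier screen potentiator hit that boosts the TRPC4 ion channel at some dose, with a dose response; inactive = no potentiation, no dose response, or not a prior hit.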

COMPOUND: CC(=O)Nc1nc2ccc(S(=O)(=O)N3CCCCC3)cc2s1
outcome: inactive
//
COMPOUND: c1ccc(Nc2c3c(nc4ccccc24)CCC3)cc1
outcome: inactive
//
COMPOUND: O=C(Nc1ccc(Cl)cc1)N1CCC(c2nc(-c3cccs3)no2)CC1
outcome: inactive
//
COMPOUND: CCn1c2ccc(F)cc2c2nnc(NN)nc21
outcome: inactive
//
COMPOUND: CCOC(=O)C1=NN(c2ccccc2C)C2=NC(C)=C(C(=O)OC)C(c3cccc(OC)c3)N12 (stereo not drawn)
outcome: inactive
//
COMPOUND: Cc1ccc(-c2nn(-c3ccccc3)cc2C(=O)Nc2ccc(C(=O)O)cc2)cc1
outcome: inactive
//
COMPOUND: Fc1ccc(Nc2ncnc3sc4c(c23)CCC4)cc1
outcome: inactive
//
COMPOUND: Cc1cc2[nH]c3ccccc3c2c(C)n1
outcome: inactive
//
COMPOUND: C/C=C(/C)C(=O)O[C@@H]1c2cc(OC)c(OC)c(OC)c2-c2c(cc3c(c2OC)OCO3)C[C@H](C)[C@]1(C)O
outcome: inactive
//
COMPOUND: CSCC[C@H](NC(=O)N1CCn2c1nc1ccccc12)C(=O)NCc1ccc(F)cc1
outcome: inactive
//
COMPOUND: CCCCN(CC)CCCNC(=O)c1csc2c1CCCCC2
outcome: inactive
//
COMPOUND: COc1ccc(OCCN(C)Cc2c(O)ccc3ccccc23)cc1
outcome: inactive
//
COMPOUND: CC(=O)n1cc([C@@H]2C=C(C(=O)NCc3ccccc3)O[C@H](OCc3ccc(CO)cc3)C2)c2ccccc21
outcome: inactive
//
COMPOUND: O=C(OCC(=O)N1CCc2ccccc2C1)c1cccc([N+](=O)[O-])c1
outcome: inactive
//
COMPOUND: COC1=C(C)C(O)=C(C(=O)/C=C/c2ccccc2)C(=O)C1(C)C
outcome: inactive
//
COMPOUND: O=c1[nH]ncc(N2CCN(Cc3ccccc3)CC2)c1Cl
outcome: inactive
//
COMPOUND: OCC1(Cc2ccccc2)CCN(Cc2ccc(C(F)(F)F)cc2)CC1
outcome: inactive
//
COMPOUND: CSC1=NC2(CCCCC2)C2=C(CCCC2)N1
outcome: inactive
//
COMPOUND: CC(C)OC(=O)C1CC=CCC1C(=O)Nc1ccc(Cl)cc1 (stereo not drawn)
outcome: inactive
//
COMPOUND: CCNc1nc(NC(C)(C)C)nc(N2CCCC2)n1
outcome: inactive
//
COMPOUND: Oc1ccccc1-c1cc(-c2ccco2)[nH]n1
outcome: inactive
//
COMPOUND: OC(CNCCC(c1ccccc1)c1ccccc1)COc1ccccc1 (stereo not drawn)
outcome: inactive
//
COMPOUND: CCOc1ccc(-n2cnnn2)cc1S(=O)(=O)NCc1ccccc1
outcome: inactive
